What self-cleavage was measured for each of the following?
B1: HDV Ribozyme (parent)
chain: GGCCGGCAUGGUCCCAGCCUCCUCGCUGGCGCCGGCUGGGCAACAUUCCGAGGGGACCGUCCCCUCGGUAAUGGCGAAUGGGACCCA

Variants of: B1
Assay: self-cleavage, relative activity (ratio to wild type); higher = more cleavage; co-transcriptional
No unit in the answer, please; the number alone is enough.

Query: I am curious: what self-cleavage value has been reported for G40C A77G ?
Result: 0.271

Query: I am curious: what self-cleavage value has been reported for C22G C24A ?
Result: 0.0396

Query: I am curious: what self-cleavage value has been reported for C15G C85G ?
Result: 0.196

Query: I am curious: what self-cleavage value has been reported for C48G C57U ?
Result: 1.04

Query: I am curious: what self-cleavage value has been reported for G17U G82U ?
Result: 0.361

Query: I am curious: what self-cleavage value has been reported for U12G C58G ?
Result: 0.499

Query: I am curious: what self-cleavage value has been reported for C36A C49G ?
Result: 0.0297

Query: I am curious: what self-cleavage value has been reported for A16U G39A ?
Result: 0.32

Query: I am curious: what self-cleavage value has been reported for G5U A16C ?
Result: 0.383

Query: I am curious: what self-cleavage value has been reported for G5U U27G ?
Result: 0.665

Query: I am curious: what self-cleavage value has been reported for C13A A51U ?
Result: 0.172

Query: I am curious: what self-cleavage value has been reported for C58A G82C ?
Result: 0.17

Query: I am curious: what self-cleavage value has been reported for C15A A56U ?
Result: 0.743

Query: I am curious: what self-cleavage value has been reported for C3U G5C ?
Result: 0.0123

Query: I am curious: what self-cleavage value has been reported for C66G C84G ?
Result: 0.745

Query: I am curious: what self-cleavage value has been reported for C13A G35U ?
Result: 0.125

Query: I am curious: what self-cleavage value has been reported for G25U G54U ?
Result: 0.228

Query: I am curious: what self-cleavage value has been reported for G5U C58G ?
Result: 0.262

Query: I am curious: what self-cleavage value has been reported for A16C G25C ?
Result: 0

Query: I am curious: what self-cleavage value has been reported for C64A G82C ?
Result: 0.199

Query: I am curious: what self-cleavage value has been reported for C24G G76U ?
Result: 0.339

Query: I am curious: what self-cleavage value has been reported for C26A G40U ?
Result: 0.946

Query: I am curious: what self-cleavage value has been reported for G34U G38U ?
Result: 0.248

Query: I am curious: what self-cleavage value has been reported for G28A C86G ?
Result: 0.0678

Query: I am curious: what self-cleavage value has been reported for G2U G68C ?
Result: 0.0339

Query: I am curious: what self-cleavage value has been reported for C41U U46A ?
Result: 0.942

Query: I am curious: what self-cleavage value has been reported for U27C U65C ?
Result: 0.798

Query: I am curious: what self-cleavage value has been reported for G5U C33G ?
Result: 0.65

Query: I am curious: what self-cleavage value has been reported for G54C G59U ?
Result: 1.15

Query: I am curious: what self-cleavage value has been reported for C19G U72A ?
Result: 0.0563

Query: I am curious: what self-cleavage value has been reported for G1U G2C ?
Result: 0.519

Query: I am curious: what self-cleavage value has been reported for G52U G81A ?
Result: 0.356

Query: I am curious: what self-cleavage value has been reported for C62U A78C ?
Result: 0.0936
